Data credit: patent US12083094B2

experiment: Blood sampling for THC and CBD plasma concentration after single oral dosing; conditions: dog, plasma, oral, THC level in blood plasma fraction, mean of dogs 5-8; 0.12 mg/kg THC + 0.24 mg/kg CBD oral once; 48 h
recorded endpoint: concentration at 48 h

-- ask Would you kindly share the measured concentration at 48 h for CCCCCc1cc(O)c2c(c1)OC(C)(C)[C@@H]1CCC(C)=C[C@@H]21 [THC, Δ^9-Tetrahydrocannabinol] ?
-- reply 0.09 ng/mL

* * *

experiment: Blood sampling for THC and CBD plasma concentration after single oral dosing; conditions: dog, plasma, oral, THC level in blood plasma fraction, mean of dogs 1-4; 0.24 mg/kg THC + 0.12 mg/kg CBD oral once; 8 h
recorded endpoint: concentration at 8 h
# output: numeric value plus its unit

-- ask Would you kindly share the measured concentration at 8 h for CCCCCc1cc(O)c2c(c1)OC(C)(C)[C@@H]1CCC(C)=C[C@@H]21 [THC, Δ^9-Tetrahydrocannabinol] ?
-- reply 3.98 ng/mL

* * *

test: Blood sampling for THC and CBD plasma concentration after single oral dosing; details: dog, plasma, oral, CBD concentration in blood plasma, individual dogs 1-4; 0.12 mg/kg CBD + 0.24 mg/kg THC oral once; 32 h
recorded endpoint: concentration at 32 h

-- ask Would you kindly share the measured concentration at 32 h for C=C(C)[C@@H]1CCC(C)=C[C@H]1c1c(O)cc(CCCCC)cc1O ?
-- reply 0 ng/mL

* * *

assay: Blood sampling for THC and CBD plasma concentration after single oral dosing; settings: dog, plasma, oral, THC level in blood plasma fraction, mean of dogs 1-4; 0.24 mg/kg THC + 0.12 mg/kg CBD oral once; 24 h
recorded endpoint: concentration at 24 h (ng/mL)
State just the number; it will be interpreted in ng/mL.

-- ask Would you kindly share the measured concentration at 24 h for CCCCCc1cc(O)c2c(c1)OC(C)(C)[C@@H]1CCC(C)=C[C@@H]21 [THC, Δ^9-Tetrahydrocannabinol] ?
-- reply 0.41

* * *

test: Blood sampling for THC and CBD plasma concentration after single oral dosing; conditions: dog, plasma, oral, THC level in blood plasma fraction, mean of dogs 1-4; 0.24 mg/kg THC + 0.12 mg/kg CBD oral once; 1 h
recorded endpoint: concentration at 1 h (ng/mL)
State just the number; it will be interpreted in ng/mL.

-- ask Would you kindly share the measured concentration at 1 h for CCCCCc1cc(O)c2c(c1)OC(C)(C)[C@@H]1CCC(C)=C[C@@H]21 [THC, Δ^9-Tetrahydrocannabinol] ?
-- reply 40.7

* * *

assay: Blood sampling for THC and CBD plasma concentration after single oral dosing; conditions: dog, plasma, po
recorded endpoint: Cmax

-- ask Would you kindly share the measured Cmax for CCCCCc1cc(O)c2c(c1)OC(C)(C)[C@@H]1CCC(C)=C[C@@H]21 [THC, Δ^9-Tetrahydrocannabinol] ?
-- reply 19 to 71.3 ng/mL

* * *

assay: Blood sampling for THC and CBD plasma concentration after single oral dosing; settings: dog, plasma, oral, THC level in blood plasma fraction, mean of dogs 5-8; 0.12 mg/kg THC + 0.24 mg/kg CBD oral once; 1 h
recorded endpoint: concentration at 1 h (ng/mL)
State just the number; it will be interpreted in ng/mL.

-- ask Would you kindly share the measured concentration at 1 h for CCCCCc1cc(O)c2c(c1)OC(C)(C)[C@@H]1CCC(C)=C[C@@H]21 [THC, Δ^9-Tetrahydrocannabinol] ?
-- reply 36.8
